Entry source: ChEMBL document CHEMBL1154182

# Target of assay: Mu-type opioid receptor (Rattus norvegicus)
# Sequence (P33535 whole entry): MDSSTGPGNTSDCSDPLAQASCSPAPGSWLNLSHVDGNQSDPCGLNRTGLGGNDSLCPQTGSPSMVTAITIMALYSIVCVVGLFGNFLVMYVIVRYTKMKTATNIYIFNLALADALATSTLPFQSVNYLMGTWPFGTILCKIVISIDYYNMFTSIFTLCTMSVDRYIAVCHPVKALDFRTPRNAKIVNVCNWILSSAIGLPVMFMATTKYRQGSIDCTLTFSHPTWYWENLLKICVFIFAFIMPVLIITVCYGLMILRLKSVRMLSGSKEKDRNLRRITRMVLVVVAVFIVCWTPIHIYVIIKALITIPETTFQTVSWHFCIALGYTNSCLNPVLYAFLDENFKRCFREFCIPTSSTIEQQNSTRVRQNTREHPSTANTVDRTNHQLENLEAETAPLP
pKi: −log10 of the molar value. Numbered stars: 1 amine (or outer) side, 2 acyl side, 3 side chain; on linkers, the order of the positions; unused ones are H or OH. Bridge positions count the residues as written; N and C are the ends. Square brackets hold non-standard residues; d marks the D form. Peptide text beside a SMILES is read from it. 1Nal = N[C@@H](Cc1cccc2ccccc12)C(=O)O; 2Nal = N[C@@H](Cc1ccc2ccccc2c1)C(=O)O; CH2 = C([*:1])[*:2]
Assign criterion met to entries whose pKi meets or exceeds 9; assign criterion not met to the rest.

Form field: pKi at least 9? Entry: NC(=O)[C@@H]1CSSC[C@@H](NC(=O)[C@@H](N)Cc2ccc(O)cc2)C(=O)N[C@@H](Cc2cccc3ccccc23)C(=O)N[C@@H](Cc2ccccc2)C(=O)N1 (H-Y[dC][1Nal]FC-NH2; disulfide 2-5)
criterion met

Form field: pKi at least 9? Entry: NC(=O)[C@@H]1CSCSC[C@@H](NC(=O)[C@@H](N)Cc2ccc(O)cc2)C(=O)N[C@@H](Cc2ccccc2)C(=O)N[C@@H](Cc2ccc3ccccc3c2)C(=O)N1 (H-Y[dC]F[2Nal]C-NH2; linker 2-5 via CH2)
criterion met

Form field: pKi at least 9? Entry: NC(=O)[C@@H]1CSCSC[C@@H](NC(=O)[C@@H](N)Cc2ccc(O)cc2)C(=O)N[C@@H](Cc2ccc3ccccc3c2)C(=O)N[C@@H](Cc2ccccc2)C(=O)N1 (H-Y[dC][2Nal]FC-NH2; linker 2-5 via CH2)
criterion met

Form field: pKi at least 9? Entry: NC(=O)[C@@H]1CSSC[C@@H](NC(=O)[C@@H](N)Cc2ccc(O)cc2)C(=O)N[C@@H](Cc2ccccc2)C(=O)N[C@@H](Cc2cccc3ccccc23)C(=O)N1 (H-Y[dC]F[1Nal]C-NH2; disulfide 2-5)
criterion not met

Form field: pKi at least 9? Entry: NC(=O)[C@@H]1CSCSC[C@@H](NC(=O)[C@@H](N)Cc2ccc(O)cc2)C(=O)N[C@@H](Cc2cccc3ccccc23)C(=O)N[C@@H](Cc2ccccc2)C(=O)N1 (H-Y[dC][1Nal]FC-NH2; linker 2-5 via CH2)
criterion met
